test_summary: blockers of LAMP-1 surface exposure, TALL-104 – TALL-104 cells, flow cytometry, Cherry Pick01, confirmation (AID 651954);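 also: 0% = stimulated vehicle wells and 100% = unstimulated wells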
run_conditions: LAMP-1 externalization, at 10 µM, stronger effect = higher value, stimulated with PMA plus thapsigargin
In all, about 1,500 compounds went through this assay and about 160 (11%) were called active. Not all results are given here.

compound: O=C(NC(=O)c1ccccc1N1CCCCC1)Nc1ccc(Br)cc1
inhibition, %: -13.3
//
compound: COc1cccc(NC(=O)C2C(c3ccccc3)C2(Cl)Cl)c1 (stereo not drawn)
inhibition, %: 0.14
//
compound: Cc1ccccc1CN1C[C@@H]2C[C@@H](c3cn(C)nc3-c3ccccc3)N3CCC[C@@]23C1=O
inhibition, %: -13.4
